Listed next: entries and their corresponding Pre-emergence action against VIOTR in %.
Tested on: VIOTR
method-notes: Pre-emergence herbicidal action against VIOTR
Assay type: in vivo, Viola tricolor
condition-set: 320 g/ha
value-kind: Pre-emergence action against VIOTR in %

[[record]]
compound = "CC#Cc1cc(C)c(C2=C(O)C3(CCC(COCC)C3)NC2=O)c(F)c1 (centres unmarked) [Example I-35]"
value_kind = "Pre-emergence action against VIOTR in %"
result = "100%"

[[record]]
compound = "CC#Cc1cc(C)c(C2=C(OC(=O)OCC)C3(CCC(COC)C3)NC2=O)c(OC)c1 (centres unmarked) [Example P-47]"
value_kind = "Pre-emergence action against VIOTR in %"
result = "100%"

[[record]]
compound = "CC#Cc1cc(Cl)c(C2=C(OC(=O)OCC)C3(CCC(COC)C3)NC2=O)c(OC)c1 (centres unmarked) [Example P-97]"
value_kind = "Pre-emergence action against VIOTR in %"
result = "90%"

[[record]]
compound = "CC#Cc1cc(C)c(C2=C(OC(=O)OCC)C3(CCC(COCCOC)C3)NC2=O)c(Cl)c1 (centres unmarked) [Example P-76]"
value_kind = "Pre-emergence action against VIOTR in %"
result = "100%"

[[record]]
compound = "CC#Cc1cc(C)c(C2=C(OC(=O)OCC)C3(CCC(COCCC)C3)NC2=O)c(OC)c1 (centres unmarked) [Example P-81]"
value_kind = "Pre-emergence action against VIOTR in %"
result = "100%"

[[record]]
compound = "CC#Cc1cc(C)c(C2=C(O)C3(CCC(COCCOC)C3)NC2=O)c(OC)c1 (centres unmarked) [Example I-52]"
value_kind = "Pre-emergence action against VIOTR in %"
result = "80%"

[[record]]
compound = "C#CCOCC1CCC2(C1)NC(=O)C(c1c(C)cc(C#CC)cc1Cl)=C2O (centres unmarked) [Example I-79]"
value_kind = "Pre-emergence action against VIOTR in %"
result = "100%"

[[record]]
compound = "CC#Cc1cc(F)c(C2=C(OC(=O)OCC)C3(CCC(COCC)C3)NC2=O)c(OC)c1 (centres unmarked) [Example P-69]"
value_kind = "Pre-emergence action against VIOTR in %"
result = "80%"

[[record]]
compound = "CC#Cc1cc(Br)c(C2=C(OC(=O)OCC)C3(CCC(COCC)C3)NC2=O)c(OC)c1 (centres unmarked) [Example P-01]"
value_kind = "Pre-emergence action against VIOTR in %"
result = "100%"

[[record]]
compound = "CC#Cc1cc(C)c(C2=C(O)C3(CCC(COCC)C3)NC2=O)c(Br)c1 (centres unmarked) [Example I-21]"
value_kind = "Pre-emergence action against VIOTR in %"
result = "100%"

[[record]]
compound = "CC#Cc1cc(C)c(C2=C(OC(=O)C(C)C)C3(CCC(COC)C3)NC2=O)c(Br)c1 (centres unmarked) [Example P-33]"
value_kind = "Pre-emergence action against VIOTR in %"
result = "100%"

[[record]]
compound = "CC#Cc1cc(Br)c(C2=C(O)[C@]3(CC[C@H](COCC)C3)NC2=O)c(OC)c1 (stereo in doubt) [Example I-11]"
value_kind = "Pre-emergence action against VIOTR in %"
result = "90%"

[[record]]
compound = "CC#Cc1cc(F)c(C2=C(OC(=O)OCC)C3(CCC(COCCC)C3)NC2=O)c(OC)c1 (centres unmarked) [Example P-84]"
value_kind = "Pre-emergence action against VIOTR in %"
result = "80%"

[[record]]
compound = "CC#Cc1cc(Br)c(C2=C(OC(=O)OCC)C3(CCC(COCC)C3)NC2=O)c(OC)c1 (centres unmarked) [Example P-05]"
value_kind = "Pre-emergence action against VIOTR in %"
result = "100%"

[[record]]
compound = "CC#Cc1cc(C)c(C2=C(OC(=O)OCC)C3(CCC(COC)C3)NC2=O)c(OC)c1 (centres unmarked) [Example P-55]"
value_kind = "Pre-emergence action against VIOTR in %"
result = "100%"

[[record]]
compound = "CC#Cc1cc(Br)c(C2=C(OC(=O)OCC)C3(CCC(COC)C3)NC2=O)c(OC)c1 (centres unmarked) [Example P-08]"
value_kind = "Pre-emergence action against VIOTR in %"
result = "90%"

[[record]]
compound = "C=CCOCC1CCC2(C1)NC(=O)C(c1c(C)cc(C#CC)cc1Br)=C2OC(=O)OCC (centres unmarked) [Example P-85]"
value_kind = "Pre-emergence action against VIOTR in %"
result = "100%"

